assay_comment: Cytotoxicity assay of host cells (MTT)
Type: cell-based, mouse BALB/c (Mus musculus)
cond: male, BALB/c, mouse, peritoneal macrophages
measured_metric: CC50 at 48 h

## Task Using known records, supply CC50 at 48 h for O=C1C=C2C=CC3CC2(O1)C1CCCCN1O3 (single isomer, unassigned; (+)) [(+)-phyllanthidine]
## Result > 200 µg/mL
